pIC50: −log10 of the molar value.
For hemolysin alpha from Staphylococcus aureus (Staphylococcus aureus, UniProt P09616), measured pIC50 is reported for the entries below.

API: value(readout= pIC50, system= hemolysin alpha from Staphylococcus aureus (Staphylococcus aureus, UniProt P09616), query= O=c1[nH]c2cc(F)c(S(=O)(=O)Nc3ccc(C(F)(F)F)c(Cl)c3)cc2[nH]c1=O [Compound 165] )
5.46 to 6.00

Give hemolysin alpha from Staphylococcus aureus (Staphylococcus aureus, UniProt P09616) pIC50 for O=c1[nH]c2cc(Br)c(S(=O)(=O)Nc3ccc(OC(F)(F)F)cc3)cc2[nH]c1=O [Compound 15]
> 7.52

Please state recorded pIC50 (tested on hemolysin alpha from Staphylococcus aureus (Staphylococcus aureus, UniProt P09616)) of CCc1ccccc1-c1ccc(NS(=O)(=O)c2cc3[nH]c(=O)c(=O)[nH]c3cc2C)cc1 [Compound 113]
Sequence (P09616 27-319 limits assumed): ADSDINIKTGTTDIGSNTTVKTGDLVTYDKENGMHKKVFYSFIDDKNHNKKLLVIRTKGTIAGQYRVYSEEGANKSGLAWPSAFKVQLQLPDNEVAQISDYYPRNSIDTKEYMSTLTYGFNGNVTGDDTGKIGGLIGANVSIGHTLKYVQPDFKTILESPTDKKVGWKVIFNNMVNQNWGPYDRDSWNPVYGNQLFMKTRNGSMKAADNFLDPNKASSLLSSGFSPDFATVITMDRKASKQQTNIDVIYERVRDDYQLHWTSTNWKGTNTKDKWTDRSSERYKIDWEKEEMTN
6.00 to 7.00

Checklist item: pIC50 tested on hemolysin alpha from Staphylococcus aureus (Staphylococcus aureus, UniProt P09616), entry Cc1cc2[nH]c(=O)c(=O)[nH]c2cc1S(=O)(=O)Nc1ccc(-c2ccccc2N(C)C)c(Cl)c1 [Compound 136] , value?
6.00 to 7.00

Please provide the recorded pIC50 for CCc1cc2[nH]c(=O)c(=O)[nH]c2cc1S(=O)(=O)Nc1ccc(OC(F)(F)F)cc1 [Compound 20] , tested on hemolysin alpha from Staphylococcus aureus (Staphylococcus aureus, UniProt P09616).
> 7.52

Query pIC50 on hemolysin alpha from Staphylococcus aureus (Staphylococcus aureus, UniProt P09616) for Cc1cc2[nH]c(=O)c(=O)[nH]c2cc1S(=O)(=O)Nc1cc(C)c(-c2ccoc2)c(C)c1 [Compound 107]
6.00 to 7.00

Find the measured pIC50: item O=c1[nH]c2cc(Cl)c(S(=O)(=O)Nc3ccc(-c4ccc(F)c(Cl)c4F)c(Cl)c3)cc2[nH]c1=O [Compound 105] , target or system hemolysin alpha from Staphylococcus aureus (Staphylococcus aureus, UniProt P09616).
6.00 to 7.00

Hello, I am looking for reported pIC50 with hemolysin alpha from Staphylococcus aureus (Staphylococcus aureus, UniProt P09616) for CC(C)c1ccc(NS(=O)(=O)c2cc3[nH]c(=O)c(=O)[nH]c3cc2F)cc1 [Compound 101] . Could you help?
6.00 to 7.00

Lookup: pIC50 / hemolysin alpha from Staphylococcus aureus (Staphylococcus aureus, UniProt P09616) / Cc1cc2[nH]c(=O)c(=O)[nH]c2cc1S(=O)(=O)Nc1ccc(F)c(Cl)c1 [Compound 183]
5.46 to 6.00

Quick check: pIC50 on hemolysin alpha from Staphylococcus aureus (Staphylococcus aureus, UniProt P09616), item O=c1[nH]c2cc(F)c(S(=O)(=O)Nc3ccc(OC(F)(F)F)cc3)cc2[nH]c1=O [Compound 147] ?
6.00 to 7.00

What is its pIC50 for hemolysin alpha from Staphylococcus aureus (Staphylococcus aureus, UniProt P09616)? Entry: CC(C)c1cc2[nH]c(=O)c(=O)[nH]c2cc1S(=O)(=O)Nc1ccc(-c2cccc(N(C)C)c2)c(Cl)c1 [Compound 109]
6.00 to 7.00

Hello, I am looking for reported pIC50 with hemolysin alpha from Staphylococcus aureus (Staphylococcus aureus, UniProt P09616) for CCc1ccc(NS(=O)(=O)c2cc3[nH]c(=O)c(=O)[nH]c3cc2C)cc1 [Compound 92] . Could you help?
> 7.52

Under hemolysin alpha from Staphylococcus aureus (Staphylococcus aureus, UniProt P09616): pIC50 value of CN(C)c1cccc(-c2ccc(NS(=O)(=O)c3cc4[nH]c(=O)c(=O)[nH]c4cc3F)cc2Cl)c1 [Compound 34] ?
> 7.52

Test system hemolysin alpha from Staphylococcus aureus (Staphylococcus aureus, UniProt P09616); read-out pIC50; what value for Cc1cc2[nH]c(=O)c(=O)[nH]c2cc1S(=O)(=O)Nc1ccc2ccccc2c1 [Compound 60] ?
7.00 to 7.52

# value lookup — system hemolysin alpha from Staphylococcus aureus (Staphylococcus aureus, UniProt P09616), readout pIC50, item O=c1[nH]c2cc(Cl)c(S(=O)(=O)Nc3ccc(-c4ccc5c(c4)NCC5)c(Cl)c3)cc2[nH]c1=O [Compound 46]
7.00 to 7.52
